Test system: DMS-273
Assay: NCI tumour cell line growth inhibition, 48 h
Activity calls are given as the source filed them. Cut-off read from the data, not from the text of the source: active = GI50 up to about 1.1 µM and inactive = higher.
Returns: one label drawn from active, inactive

Previously resolved entries follow.
Challenge: Please indicate how the test categorized CN(C)C(=O)Oc1c(Br)cc(Br)cc1C(=O)OCc1ccccc1 .
Response given: inactive

Challenge: Please indicate how the test categorized CCOC(=O)c1cn2c([nH]c3ccccc32)c(C#N)c1=O .
Response given: inactive

Challenge: Please indicate how the test categorized O=S(=O)(O)c1cc(/N=N/c2cc(S(=O)(=O)O)c3ccccc3c2O)ccc1/C=C/c1ccc(/N=N/c2cc(S(=O)(=O)O)c3ccccc3c2O)cc1S(=O)(=O)O .
Response given: inactive

Challenge: Please indicate how the test categorized O=C(CSSCC(=O)OCCS(=O)(=O)Nc1ccc(Br)cc1)OCCS(=O)(=O)Nc1ccc(Br)cc1 .
Response given: inactive

Challenge: Please indicate how the test categorized Cc1cc([N+](=O)[O-])ccc1NC(=O)C(=O)C(C(=O)c1ccccc1-c1ccccc1)C1OC(=O)c2ccccc21 (stereo not drawn) .
Response given: inactive

Continuing:
Challenge: Please indicate how the test categorized COc1ccc(CN2CC(C)(C)C2=O)c(OC)c1 .
Response given: inactive

Challenge: Please indicate how the test categorized O=C(CCc1cc(-c2ccccc2)[nH]c(=S)n1)Nc1ccccc1[N+](=O)[O-] .
Response given: inactive

Challenge: Please indicate how the test categorized CCCCNS(=O)(=O)c1ccc(-c2ccc3c(c2)-c2ccc(S(=O)(=O)NCCCC)cc2S3(=O)=O)cc1 .
Response given: inactive

Challenge: Please indicate how the test categorized CCN(CC)/[N+]([O-])=N/O .
Response given: inactive

Challenge: Please indicate how the test categorized COC1=C(N=[N+]=[N-])C(=O)c2ncccc2C1=O .
Response given: inactive

Challenge: Please indicate how the test categorized COc1ccc2c(c1)[n+]([O-])c(-c1ccc(OC)c(OC)c1)c(N)[n+]2[O-] .
Response given: inactive

Challenge: Please indicate how the test categorized CC(c1ccccc1)C(O)S(=O)(=O)O (stereo not drawn) .
Response given: inactive

Challenge: Please indicate how the test categorized CSC1SCC2C(=O)N(C)C(C(C)C)C(=O)OCC(NC(=O)c3cnc4ccccc4n3)C(=O)NC(C)C(=O)N(C)C1C(=O)N(C)C(C(C)C)C(=O)OCC(NC(=O)c1cnc3ccccc3n1)C(=O)NC(C)C(=O)N2C (stereo not drawn) .
Response given: active

Challenge: Please indicate how the test categorized CC(=O)NS(=O)(=O)c1ccc(NC(=O)COC(=O)c2cccc3c(=O)c4ccccc4[nH]c23)cc1 .
Response given: inactive

Challenge: Please indicate how the test categorized Nc1ncnc2c1ncn2C1OC(CSC(F)(F)F)C(O)C1O (stereo not drawn) .
Response given: inactive

Challenge: Please indicate how the test categorized N#Cc1cccc(NC(=O)c2ccc(C(=O)O)c(C(=O)c3ccc(C(=O)O)c(C(=O)Nc4cccc(C#N)c4)c3)c2)c1 .
Response given: inactive

Challenge: Please indicate how the test categorized c1ccc(NCn2cnc3ccccc32)cc1 .
Response given: inactive

Challenge: Please indicate how the test categorized C[N+](C)(C)CCOC(=O)/C=C/c1c[nH]cn1 .
Response given: inactive

Challenge: Please indicate how the test categorized COc1cc([C@@H]2c3cc4c(cc3[C@H](O)[C@H]3COC(=O)[C@H]23)OCO4)cc(OC)c1OC [PODOFILOX] .
Response given: active
